Assay: Selectivity index, ratio of IC50 for HAF to IC50 for human HT-29 cells
Type: toxicity
Conditions: HAF cells versus HT-29 cells, read-out: Ratio IC50
Measured selectivity ratio of individual entries
experimental_readout: selectivity ratio

* COc1cc2c(cc1C(=O)Nc1ccc(OC(F)(F)F)cc1)CC[C@H]1C(C)(C)C(=O)C=C[C@]21C | 3 to 3.8
* COC(=O)[C@]12CCC(C)(C)C[C@H]1[C@H]1C(=O)C=C3[C@@]4(C)C=C(C#N)C(=O)C(C)(C)[C@@H]4CC[C@@]3(C)[C@]1(C)CC2 [BARDOXOLONE METHYL] | 7.2 to 8.4
* COc1cc2c(cc1C(=O)Nc1ccccc1OC(F)(F)F)CC[C@H]1C(C)(C)C(=O)C(C#N)=C[C@]21C | 7.3 to 13.1
* COc1cc(Br)c(Nc2nc(-c3c(C)nc4ncccn34)cs2)c(Br)c1 | 1.6 to 1.7
